Molecular target: His-His-USP7 (aa208-560, |C315A|) (Homo sapiens, UniProt Q93009, C315A)
Construct: His-His-USP7 (aa208-560, |C315A|); His-His (N)
Sequence (Q93009 208-560 C315A): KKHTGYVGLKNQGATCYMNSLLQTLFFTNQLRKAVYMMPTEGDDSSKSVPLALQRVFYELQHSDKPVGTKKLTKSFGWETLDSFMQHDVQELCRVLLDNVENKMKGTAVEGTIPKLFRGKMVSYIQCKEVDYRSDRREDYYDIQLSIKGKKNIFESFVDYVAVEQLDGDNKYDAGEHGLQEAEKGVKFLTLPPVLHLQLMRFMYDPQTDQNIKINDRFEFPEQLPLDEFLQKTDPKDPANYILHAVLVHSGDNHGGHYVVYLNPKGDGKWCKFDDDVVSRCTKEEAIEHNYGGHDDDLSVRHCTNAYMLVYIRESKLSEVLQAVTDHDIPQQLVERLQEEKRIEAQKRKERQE
Assay: Evaluation of the inhibition of USP7 by the Fluorescence Intensity (FLINT) readings
Assay type: biochemical
Settings: 0.25 nM His-His-USP7, compound incubated 60 minutes at 30° C., 500 nM Ubiquitin-Rhodamine-110 substrate; 50% reduction in kinetic rate
What IC50 was measured for each of the following?
Give bare numbers, in µM.

Batch request: IC50 for each of the following molecules.
1. CN(C)Cc1ccc(Oc2ncn(CC3(O)CCN(C(=O)[C@@H]4CCC(F)(F)C[C@H]4c4ccccc4)CC3)c(=O)c2N)cc1 [Example 108]
2. Nc1c(Oc2ccc(F)cc2)ncn(CC2(O)CCN(C(=O)[C@@H]3CC[C@](O)(Cc4ccccn4)C[C@H]3c3ccccc3)CC2)c1=O (relative stereo) [Example 96]
3. NC(=O)c1ccc(Oc2ncn(CC3(O)CCN(C(=O)[C@@H]4CCC(F)(F)C[C@H]4c4ccccc4)CC3)c(=O)c2N)cc1 [Example 58]
4. Nc1c(Oc2ccc(F)cc2)ncn(CC2(O)CCN(C(=O)[C@@H]3CC[C@](F)(C#Cc4ccc(F)cn4)C[C@H]3c3ccccc3)CC2)c1=O [Example 133]
5. Nc1c(Oc2ccc3cn[nH]c3c2)ncn(CC2(O)CCN(C(=O)[C@@H]3CCC(F)(F)C[C@H]3c3ccccc3)CC2)c1=O [Example 35]
6. COc1cnnc(C#C[C@@]2(OC)CC[C@@H](C(=O)N3CC[C@](O)(Cn4cnc(Oc5ccc(F)cc5)c(N)c4=O)C(F)(F)C3)C(c3ccccc3)C2)c1 (stereo partly shown) [Example 173]
7. Nc1c(Oc2ccc(F)c(CO)c2)ncn(CC2(O)CCN(C(=O)[C@@H]3CCC(F)(F)C[C@H]3c3ccccc3)CC2)c1=O [Example 118]

1. 0.0639
2. 0.109
3. 0.067
4. 0.0315
5. 0.0342
6. 0.0146
7. 0.0331

Would you mind giving IC50 for every molecule in the list below?
1. Nc1c(Oc2ccc(F)cc2)ncn(CC2(O)CCN(C(=O)[C@@H]3CC[C@@](O)(c4ccccc4)C[C@H]3c3ccccc3)CC2)c1=O (relative stereo) [Example 103]
2. Nc1c(Oc2ccccc2)ncn(C[C@]2(O)CCN(C(=O)[C@@H]3CCC(F)(F)C[C@H]3c3ccccc3)CC2(F)F)c1=O [Example 10]
3. N#CCc1ccc(Oc2ncn(CC3(O)CCN(C(=O)[C@@H]4CCC(F)(F)C[C@H]4c4ccccc4)CC3)c(=O)c2N)cc1 [Example 117]
4. CO[C@]1(C#Cc2cccc(N)n2)CC[C@@H](C(=O)N2CC[C@](O)(Cn3cnc(Oc4ccc(F)cc4)c(N)c3=O)C(F)(F)C2)[C@H](c2ccccc2)C1 [Example 164]
5. Nc1c(Oc2ccc(F)cc2)ncn(CC2(O)CCN(C(=O)[C@@H]3CC[C@@](O)(Cc4ccccc4)C[C@H]3c3ccccc3)CC2)c1=O (relative stereo) [Example 95]
6. Nc1c(Oc2ccc(F)cc2)ncn(CC2(O)CCN(C(=O)[C@@H]3CC[C@](F)(C#Cc4ccccn4)C[C@H]3c3ccccc3)CC2)c1=O [Example 132]

0.312
4.32
0.0822
0.0246
0.172
0.00329

---

Biological target: His-His-USP7 (aa208-560, |C315A|) (Homo sapiens, UniProt Q93009, C315A)
Construct: His-His-USP7 (aa208-560, |C315A|); His-His (N)
Assay: Evaluation of the inhibition of USP7 by the Fluorescence Intensity (FLINT) readings
Type: biochemical
Conditions: 0.25 nM His-His-USP7, compound incubated 60 minutes at 30° C., 500 nM Ubiquitin-Rhodamine-110 substrate; 50% reduction in kinetic rate
OBSERVABLE: IC50 (nM)
Give bare numbers, in nM.

// worked examples, IC50 included
CO[C@]1(C#Cc2cncnc2)CC[C@@H](C(=O)N2CCC(O)(Cn3cnc(Oc4ccc(F)cc4)c(N)c3=O)CC2)[C@H](c2ccccc2)C1    49.7
O=C([C@@H]1CCC(F)(F)C[C@H]1c1ccccc1)N1CCC(O)(Cn2cnc(Oc3ccccc3)c(NCC(F)(F)F)c2=O)CC1    1250

IC50 reported for this compound Nc1c(Oc2ccc(Cl)c(O)c2)ncn(CC2(O)CCN(C(=O)[C@@H]3CCC(F)(F)C[C@H]3c3ccccc3)CC2)c1=O : 28
